- procedure.text: physchem
- study.conditions: octanol/water, pH 7.4
assay.endpoint: logD

Nc1ncc(-c2ccc(C(=O)N3CCOCC3)cc2)cc1-c1ccc(C(F)(F)F)nc1 ... 2.4
COc1ccc(-c2cc(-c3ccc(C(=O)N(C)C)cc3)cnc2N)cn1 ... 2.1
COc1ccc(-c2cc(-c3ccc(S(=O)(=O)NC4CC4)cc3)cnc2N)cn1 ... 2.7

---

- procedure.text: Kinetic solubility of the compound in 0.01M HCl at pH 2 by nephelometry analysis
- Format: physicochemical
- study.conditions: read-out: Kinetic_solubility
Overview of reported solubility kinetic across a group of molecules:

// solved cases for solubility kinetic follow
COc1ccc(-c2cc(-c3ccc(C(=O)N4CCOCC4)cc3)cnc2N)cn1 ... 25 µg/mL
COc1ccc(-c2cc(-c3cccc(C(N)=O)c3)cnc2N)cn1 ... > 100 µg/mL
CNC(=O)c1ccc(-c2cnc(N)c(-c3ccc(OC)nc3)c2)cc1 ... 50 µg/mL
CNS(=O)(=O)c1ccc(-c2cnc(N)c(-c3ccc(OC)nc3)c2)cc1 ... > 100 µg/mL
COc1ccc(-c2cc(-c3ccc4ncccc4c3)cnc2N)cn1 ... > 100 µg/mL

Q) Indicate its recorded solubility kinetic; the molecule in question is COc1ccc(-c2cc(-c3ccc(S(C)(=O)=O)c(F)c3)cnc2N)cn1
A) > 100 µg/mL

Q) Indicate its recorded solubility kinetic; the molecule in question is COc1ccc(-c2cc(-c3ccc(S(=O)(=O)NC4CC4)cc3)cnc2N)cn1
A) > 100 µg/mL

Q) Indicate its recorded solubility kinetic; the molecule in question is COc1ccc(-c2cnc(N)c(-c3ccc(OC)nc3)c2)cn1
A) > 100 µg/mL

Q) Indicate its recorded solubility kinetic; the molecule in question is COc1ccc(-c2cc(-c3ccc(-n4cncn4)cc3)cnc2N)cn1
A) > 100 µg/mL

---

- procedure.text: physchem
- study.conditions: octanol/water, pH 7.4
assay.endpoint: logD

COc1ccc(-c2cc(-c3ccc(-c4nnc(C)o4)cc3)cnc2N)cn1 ... 2.6
COc1ccc(-c2cc(-c3ccc(-n4cccn4)cc3)cnc2N)cn1 ... 3.1
COc1ccc(-c2cc(-c3ccc(C(N)=O)cc3)cnc2N)cn1 ... 1.7
Nc1ncc(-c2ccc(C(=O)N3CCOCC3)cc2)cc1-c1ccc(C(F)(F)F)cc1 ... 3.1
COc1ccc(-c2cc(-c3ccc(C(=O)N4CCOCC4)cc3)cnc2N)cn1 ... 2
Nc1ncc(-c2ccc(C(=O)N3CCNCC3)cc2)cc1-c1ccc(C(F)(F)F)cc1 ... 3.3
CN1CCN(C(=O)c2ccc(-c3cnc(N)c(-c4ccc(C(F)(F)F)nc4)c3)cc2)CC1 ... 2.9
COc1ccc(-c2cc(-c3ccc4nccn4c3)cnc2N)cn1 ... 2.4

P: COc1ccc(-c2cc(-c3ccc(C(F)(F)F)cc3)cnc2N)cn1
Q: COc1ccc(-c2cc(-c3ccc(S(=O)(=O)N4CCOCC4)cc3)cnc2N)cn1
R: CNC(=O)c1ccc(-c2cnc(N)c(-c3ccc(OC)nc3)c2)cc1
Q) Please put the entries in order of rising logD. I would appreciate it if you listed the labels in the requested order.
A) R, Q, P
(R: 1.8, Q: 2.7, P: 4.2)
